# hERG current change (%, negative = inhibition) at 1uM per record follows
Target: human ether-à-go-go-related gene (hERG) potassium channel (human, UniProt Q12809)
Sequence (Q12809 whole entry, looked up): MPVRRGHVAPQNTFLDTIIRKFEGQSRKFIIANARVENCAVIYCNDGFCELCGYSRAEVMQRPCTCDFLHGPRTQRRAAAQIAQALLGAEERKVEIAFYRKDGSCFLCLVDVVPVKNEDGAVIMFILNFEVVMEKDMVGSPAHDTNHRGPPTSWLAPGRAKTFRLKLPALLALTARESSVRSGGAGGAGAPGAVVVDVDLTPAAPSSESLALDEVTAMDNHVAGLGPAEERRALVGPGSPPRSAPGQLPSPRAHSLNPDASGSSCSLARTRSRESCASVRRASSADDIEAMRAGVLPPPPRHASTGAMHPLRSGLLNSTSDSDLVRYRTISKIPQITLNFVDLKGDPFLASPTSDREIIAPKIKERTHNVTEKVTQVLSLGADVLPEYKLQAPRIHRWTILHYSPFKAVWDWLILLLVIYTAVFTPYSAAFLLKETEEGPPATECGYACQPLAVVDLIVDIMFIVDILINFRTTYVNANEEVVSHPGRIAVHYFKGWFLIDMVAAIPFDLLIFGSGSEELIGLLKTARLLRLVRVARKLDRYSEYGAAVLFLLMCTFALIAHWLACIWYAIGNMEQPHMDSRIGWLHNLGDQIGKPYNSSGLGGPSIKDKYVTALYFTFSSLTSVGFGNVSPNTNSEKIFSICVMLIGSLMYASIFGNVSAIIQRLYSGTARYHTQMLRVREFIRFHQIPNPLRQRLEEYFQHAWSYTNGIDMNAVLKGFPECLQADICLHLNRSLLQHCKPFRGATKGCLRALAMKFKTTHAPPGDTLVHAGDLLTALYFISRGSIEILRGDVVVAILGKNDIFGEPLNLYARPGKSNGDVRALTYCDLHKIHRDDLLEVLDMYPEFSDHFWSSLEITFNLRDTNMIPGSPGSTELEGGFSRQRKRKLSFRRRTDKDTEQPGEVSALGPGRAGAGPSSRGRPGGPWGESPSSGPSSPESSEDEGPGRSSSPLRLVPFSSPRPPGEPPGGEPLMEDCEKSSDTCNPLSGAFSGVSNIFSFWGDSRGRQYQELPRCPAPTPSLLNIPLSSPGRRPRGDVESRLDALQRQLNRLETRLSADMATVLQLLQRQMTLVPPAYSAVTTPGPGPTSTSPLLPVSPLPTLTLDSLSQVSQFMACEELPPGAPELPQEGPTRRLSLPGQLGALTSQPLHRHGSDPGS
Test: primary screen, population patch clamp on CHO cells stably expressing hERG; higher = less effect of the substance
In all, about 310,000 compounds went through this assay and about 2,200 (0.71%) showed an effect of 50% or more. Effects have a minus sign here. This excerpt belongs to a sample that is enriched for strong results.
Outcome Measure: hERG current change (%, negative = inhibition) at 1uM

> print(dat)
                                   compound   value
1            Cc1ccc2nsnc2c1NC(=O)c1cccnc1Cl   15.1%
2  O=C(c1cc2cc([N+](=O)[O-])ccc2oc1=O)N1CCN(C2CCCCC2)CC1  -60.8%
3  CCNC(=O)c1ccc(NC(=O)CC2SC(N3CCCCC3)=NC2=O)cc1 (centres unmarked)  -1.11%
4  Br.CC1(C(=O)CSc2n[nH]c(-c3ccccc3Cl)n2)CCC(=O)O1 (centres unmarked)   8.24%
5  CCN1CCN(C(=O)c2cc3cc([N+](=O)[O-])ccc3oc2=O)CC1  -1.11%
